system: Echinochloa crus-galli (ECHCG); assay: Pre-emergence herbicide glasshouse test; assay type: in vivo; details: 250 g/ha, evaluated after 13 days
Known percentage damage caused to the plant, ECHCG (five-point scale) of a selection of compounds
measurement.kind: percentage damage caused to the plant, ECHCG (five-point scale)

| compound.structure.string | assay.value |
| --- | --- |
| FC(F)(F)c1cn(Cc2sc(Cl)nc2Cl)c(-c2ccc(Cl)nc2)n1 | 1 (1=0-20%) |
| Cc1nnc(Cn2cc(C(F)(F)F)nc2-c2ccc(F)c(F)c2)s1 | 5 (5=81-100%) |
| CCn1cc(Cn2cc(C(F)(F)F)nc2-c2ccc(Cl)nc2)nn1 | 3 (3=41-60%) |
| Cc1nc(Cn2cc(C(F)(F)F)nc2-c2cnc(Cl)c(F)c2)no1 | 5 (5=81-100%) |
| CC(C)c1nnc(Cn2cc(C(F)(F)F)nc2-c2ccc(Cl)nc2)o1 | 1 (1=0-20%) |
| Cn1ccc(Cn2cc(C(F)(F)F)nc2-c2cnc(Cl)c(F)c2)n1 | 4 (4=61-80%) |
| Cc1cc(Cn2cc(C(F)(F)F)nc2-c2ccc(F)c(F)c2)ns1 | 5 (5=81-100%) |
| FC(F)(F)c1cn(Cc2nc(C3CC3)no2)c(-c2ccc(Cl)nc2)n1 | 1 (1=0-20%) |
| Cc1cc(Cn2cc(C(F)(F)F)nc2-c2ccc(S(C)(=O)=O)cc2)ns1 | 5 (5=81-100%) |
| FC(F)(F)c1cn(Cc2cnc(Cl)s2)c(-c2ccc(Cl)nc2)n1 | 1 (1=0-20%) |
| Cc1nnc(Cn2cc(C(F)(F)F)nc2-c2cnc(Cl)c(F)c2)o1 | 3 (3=41-60%) |
| Fc1cc(-c2nc(C(F)(F)F)cn2Cc2ccc(Cl)s2)cnc1Cl | 1 (1=0-20%) |
| Cn1nc(Cn2cc(C(F)(F)F)nc2-c2ccc(Cl)nc2)cc1Cl | 3 (3=41-60%) |
| Cc1cc(Cn2cc(C(F)(F)F)nc2-c2ccc(Cl)nc2)nn1C | 1 (1=0-20%) |
| N#Cc1ccc(Cn2cc(C(F)(F)F)nc2-c2ccc(C(F)(F)F)cc2)s1 | 2 (2=21-40%) |
| CCON=Cc1cn(Cc2ncn(C)n2)c(-c2cnc(Cl)c(F)c2)n1 | 5 (5=81-100%) |
| Cc1cc(Cn2cc(C#N)nc2-c2cnc(Cl)c(F)c2)no1 | 3 (3=41-60%) |
| Cc1cc(Cn2cc(C(F)(F)F)nc2-c2ccc(C(F)(F)F)cc2)no1 | 5 (5=81-100%) |
| Cc1cc(Cn2cc(C(F)(F)F)nc2-c2ccc(Cl)nc2)no1 | 5 (5=81-100%) |
| FC(F)(F)c1cn(Cc2ncco2)c(-c2ccc(Cl)nc2)n1 | 1 (1=0-20%) |
| Cc1nonc1Cn1cc(C(F)(F)F)nc1-c1ccc(C(F)(F)F)cc1 | 1 (1=0-20%) |
| Cc1cc(Cn2cc(C(F)(F)F)nc2-c2cnc(F)c(Cl)c2)ns1 | 5 (5=81-100%) |
| FC(F)n1ccc(Cn2cc(C(F)(F)F)nc2-c2ccc(Cl)nc2)n1 | 1 (1=0-20%) |
| FC(F)(F)c1cn(Cc2ccsn2)c(-c2ccc(Cl)nc2)n1 | 1 (1=0-20%) |
| Cn1cnc(Cn2cc(C(F)(F)F)nc2-c2ccc(C(F)(F)F)cc2)n1 | 5 (5=81-100%) |
| CCc1cc(Cn2cc(C(F)(F)F)nc2-c2ccc(Cl)nc2)no1 | 5 (5=81-100%) |
| CC(C)(C)c1nc(Cn2cc(C(F)(F)F)nc2-c2ccc(C(F)(F)F)cc2)no1 | 1 (1=0-20%) |
| Fc1ncc(-c2nc(C(F)(F)F)cn2Cc2ccc(Cl)s2)cc1Cl | 3 (3=41-60%) |
| CCON=Cc1cn(Cc2cc(C)on2)c(-c2cnc(Cl)c(F)c2)n1 | 1 (1=0-20%) |
